Consider the following substances and their measured EC50 readings.
biological target: CRF2R (Homo sapiens, UniProt Q13324); test: CRF2R agonist activity (EC50, Emax), called comparative CRF binding; format: cell-based; details: read-out: CRF2R EC50
Sequence (Q13324 whole entry, species assumed): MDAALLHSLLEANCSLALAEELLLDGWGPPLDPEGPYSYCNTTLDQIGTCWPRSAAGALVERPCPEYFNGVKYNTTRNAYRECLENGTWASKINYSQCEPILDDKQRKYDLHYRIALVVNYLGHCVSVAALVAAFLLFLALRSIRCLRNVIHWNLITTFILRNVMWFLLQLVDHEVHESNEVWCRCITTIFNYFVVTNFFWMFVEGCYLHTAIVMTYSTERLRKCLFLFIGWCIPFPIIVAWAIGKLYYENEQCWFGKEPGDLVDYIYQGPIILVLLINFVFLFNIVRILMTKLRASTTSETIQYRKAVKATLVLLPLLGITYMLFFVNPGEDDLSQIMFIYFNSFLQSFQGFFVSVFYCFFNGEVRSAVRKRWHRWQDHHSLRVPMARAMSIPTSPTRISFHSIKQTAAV
Ends that are not written are not given here.

Reference set, count: 3
# Substance, Assay Readout, Observed
measured = [
    ("NDDPPISIDLPLHLLRNMIEMARIENEREQAGLNAKYLAEV-NH2 [compound 259]", "EC50", "≥ 100 nM"),
    ("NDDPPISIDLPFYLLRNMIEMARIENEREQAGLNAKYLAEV-NH2 [compound 261]", "EC50", "≥ 100 nM"),
    ("HHHHHHIVLSLDVPIGLLQILLEQARARAAREQATTNARILARN-NH2 [compound 296]", "EC50", "6.66 nM"),
]

Query: EC50; subject: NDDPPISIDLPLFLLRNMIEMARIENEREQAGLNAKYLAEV-NH2 [compound 257]
≥ 100 nM

EC50 for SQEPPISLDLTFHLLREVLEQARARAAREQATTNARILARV-NH2 [compound 157] ?
42 nM

# lookup: EC50 of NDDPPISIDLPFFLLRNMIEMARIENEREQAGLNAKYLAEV-NH2 [compound 264]
≥ 100 nM

So what does the record say about EC50 for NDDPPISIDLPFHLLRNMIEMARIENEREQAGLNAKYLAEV-NH2 [compound 262] ?
≥ 100 nM
